The values you see were collected from paper PMC10397247.

Target: T1, 4H3817-bA
T1 chain: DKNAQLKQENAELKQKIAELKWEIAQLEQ
Experiment: two-hybrid library CCNG1;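 further: natural log of median RNA to DNA barcode read ratio; higher means stronger binding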
Use -0.2 as the dividing line for interaction score, with the line itself on the fulfilled side and lower values as not fulfilled.

- Binder: "DKNAQLKQEIAELEQENAELKWKIAQLEQ [4H3613-bA]"
  Qualitative label: "not fulfilled"
- Binder: "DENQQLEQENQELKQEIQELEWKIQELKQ [4H1222-bN]"
  Qualitative label: "fulfilled"
- Binder: "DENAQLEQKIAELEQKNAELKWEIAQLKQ [4H1338-bA]"
  Qualitative label: "not fulfilled"
- Binder: "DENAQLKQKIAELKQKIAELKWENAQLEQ [4H1899-bA]"
  Qualitative label: "not fulfilled"
- Binder: "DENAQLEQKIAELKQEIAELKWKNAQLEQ [4H1359-bA]"
  Qualitative label: "not fulfilled"
- Binder: "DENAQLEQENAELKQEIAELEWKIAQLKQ [4H1222-bA]"
  Qualitative label: "fulfilled"
- Binder: "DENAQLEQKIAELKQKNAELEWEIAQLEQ [4H1393-bA]"
  Qualitative label: "not fulfilled"
